test system: Mycobacterium vanbaalenii; experiment: Antibacterial activity against Mycobacterium vanbaalenii assessed as inhibition of cell growth after 24 hrs; format: functional, Mycolicibacterium vanbaalenii
Value kind: IC50 (µM)
Value expressed in µM; do not type the unit.

Hello, I am looking for reported IC50 with Mycobacterium vanbaalenii for COc1cc2c(cc1NC(=O)CSc1nnc(-c3ccccc3C)n1Cc1ccoc1)oc1ccccc12 . Could you help?
5.3

====

system: Mycobacterium vanbaalenii; assay: Antibacterial activity against Mycobacterium vanbaalenii assessed as growth inhibition at 30 uM after 6 hrs by microplate reader; format: functional; conditions: Mycolicibacterium vanbaalenii
Activity calls are given as the source filed them. The calls are words filed in the database; no cut-off is given here.
Response enum: yes for active, no for inactive

// outcome(item) with item = COC(=O)c1ccc(Cl)c(NC(=O)CN(c2ccc(OCc3ccccc3)cc2)S(C)(=O)=O)c1
yes

One more molecule: COc1ccc(OC)c(NS(=O)(=O)c2ccc(NC(=O)CN3C(=O)c4cccc5cccc3c45)cc2)c1
yes

What do you have for COc1cc2c(cc1NC(=O)CSc1nnc(-c3ccccc3C)n1Cc1ccoc1)oc1ccccc12 ?
yes

Can you handle O=S(=O)(NCCc1ccccc1)c1cccc2c(S(=O)(=O)NCCc3ccccc3)cccc12 next?
no

Try CN(C(=O)CSc1nc(Nc2ccccc2)nc(N2CCOCC2)n1)C12CC3CC(CC(C3)C1)C2 next.
yes
